tested on: MS2 coat protein; assay: apparent KD of MS2 coat protein; higher = weaker reporter binding; details: Eterna round: R107; input ligand: theophylline 2 mM
Property name: apparent KD of MS2 coat protein (nM)
Field: numeric (nM). Do not append units.

Request: For GGAUAGGACAGAAGGAGCGACAUGGCAGAAACUGCAAUCCUCCUACACGAGGAUCACCCGUGUCAGGUAGGUCGCUGUCCUAUCG [ArgXB 12 #Zipper #MS2Left #StaticStem #Blueprint] , what is its reported apparent KD of MS2 coat protein?
Result: 36.9

Request: Record request: apparent KD of MS2 coat protein value, item AGCAGCUCGAAAGAGUUGCACUCAUGUGAAGGAGCGCCCGUUAGGGCAGGUAGGUCGCACAUGAGGAUCACCCAUGUACCUUCUA [ArgAX 20 #OpenEnded #MS2Late]
Result: 273

Request: Give the measured apparent KD of MS2 coat protein of UCGCCCAGAAAGGAUUCCUGGGAUAUGGAAGGAGCGCUGAUGCCAGCAGGUAGGUCGCCAACGGACAUGAGGAUCACCCAUGUAC [Same State - Arginine A (Freestyle 7)] .
Result: 21.7
